- System under test: fusion protein PRS
- Sequence (chain, as listed by the source): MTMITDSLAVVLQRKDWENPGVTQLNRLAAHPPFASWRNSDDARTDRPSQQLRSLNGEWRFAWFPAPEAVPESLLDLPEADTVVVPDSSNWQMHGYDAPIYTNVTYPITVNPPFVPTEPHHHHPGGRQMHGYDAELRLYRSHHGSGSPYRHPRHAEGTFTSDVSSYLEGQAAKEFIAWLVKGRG

>  <Protein>
OmpT protease variant OmpT D97E (protein) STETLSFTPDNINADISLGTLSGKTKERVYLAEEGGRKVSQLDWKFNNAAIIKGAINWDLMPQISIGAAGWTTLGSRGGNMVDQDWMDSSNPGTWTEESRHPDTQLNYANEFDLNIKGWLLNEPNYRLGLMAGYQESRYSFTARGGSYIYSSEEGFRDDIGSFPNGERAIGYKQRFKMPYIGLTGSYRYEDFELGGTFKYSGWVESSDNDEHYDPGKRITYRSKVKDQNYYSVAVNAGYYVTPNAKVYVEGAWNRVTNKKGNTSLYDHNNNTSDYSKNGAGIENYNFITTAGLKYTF

>  <relative cleavage efficiency / %>
7.2

$$$$
>  <Protein>
OmpT protease variant OmpT D97C (protein) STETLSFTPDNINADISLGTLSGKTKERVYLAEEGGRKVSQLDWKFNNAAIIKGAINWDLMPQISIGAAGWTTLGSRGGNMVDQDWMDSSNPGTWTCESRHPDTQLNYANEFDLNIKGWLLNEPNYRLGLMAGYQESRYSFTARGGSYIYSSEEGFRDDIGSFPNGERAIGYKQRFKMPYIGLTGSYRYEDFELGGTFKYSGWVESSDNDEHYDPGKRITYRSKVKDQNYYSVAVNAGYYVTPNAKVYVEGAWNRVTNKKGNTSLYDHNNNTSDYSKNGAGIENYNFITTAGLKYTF

>  <relative cleavage efficiency / %>
5.6

$$$$
>  <Protein>
OmpT protease variant OmpT D97L (protein) STETLSFTPDNINADISLGTLSGKTKERVYLAEEGGRKVSQLDWKFNNAAIIKGAINWDLMPQISIGAAGWTTLGSRGGNMVDQDWMDSSNPGTWTLESRHPDTQLNYANEFDLNIKGWLLNEPNYRLGLMAGYQESRYSFTARGGSYIYSSEEGFRDDIGSFPNGERAIGYKQRFKMPYIGLTGSYRYEDFELGGTFKYSGWVESSDNDEHYDPGKRITYRSKVKDQNYYSVAVNAGYYVTPNAKVYVEGAWNRVTNKKGNTSLYDHNNNTSDYSKNGAGIENYNFITTAGLKYTF

>  <relative cleavage efficiency / %>
9.1

$$$$
>  <Protein>
OmpT protease (wild-type, E. coli mature OmpT protease) (protein) STETLSFTPDNINADISLGTLSGKTKERVYLAEEGGRKVSQLDWKFNNAAIIKGAINWDLMPQISIGAAGWTTLGSRGGNMVDQDWMDSSNPGTWTDESRHPDTQLNYANEFDLNIKGWLLNEPNYRLGLMAGYQESRYSFTARGGSYIYSSEEGFRDDIGSFPNGERAIGYKQRFKMPYIGLTGSYRYEDFELGGTFKYSGWVESSDNDEHYDPGKRITYRSKVKDQNYYSVAVNAGYYVTPNAKVYVEGAWNRVTNKKGNTSLYDHNNNTSDYSKNGAGIENYNFITTAGLKYTF

>  <relative cleavage efficiency / %>
3.9

$$$$
